Biological target: DNA topoisomerase II (Homo sapiens) (UniProt P11388+Q02880)
Experiment: Inhibition of human DNA Topoisomerase II
Assay type: protein assay
measure: ID50 (µM)
Report only the number, with the unit µM understood.

Below, 5 compounds whose answers are already recorded.
smilesNotation	experimentalTarget	ID50 [µM]
COc1cc([C@@H]2c3cc(O)c(O)cc3[C@@H](Nc3ccc(C#N)cc3)[C@H]3COC(=O)[C@H]23)cc(OC)c1O	DNA topoisomerase II (Homo sapiens) (UniProt P11388+Q02880)	20
CCOC(=O)c1ccc(N[C@@H]2c3cc(O)c(O)cc3[C@@H](c3cc(OC)c(O)c(OC)c3)[C@H]3C(=O)OC[C@@H]32)cc1	DNA topoisomerase II (Homo sapiens) (UniProt P11388+Q02880)	20
COc1cc2c(cc1OC)[C@@H](Nc1ccc(C#N)cc1)[C@H]1COC(=O)[C@@H]1[C@@H]2c1cc(OC)c(O)c(OC)c1	DNA topoisomerase II (Homo sapiens) (UniProt P11388+Q02880)	50
COc1cc([C@@H]2c3cc(O)c(O)cc3[C@@H](Nc3ccc(F)cc3)[C@H]3COC(=O)[C@H]23)cc(OC)c1O	DNA topoisomerase II (Homo sapiens) (UniProt P11388+Q02880)	25
COc1cc([C@@H]2c3cc(O)c(O)cc3[C@@H](Nc3ccc([N+](=O)[O-])cc3)[C@H]3COC(=O)[C@H]23)cc(OC)c1O	DNA topoisomerase II (Homo sapiens) (UniProt P11388+Q02880)	20

Incoming: # lookup: ID50 of CCOC(=O)c1ccc(N[C@@H]2c3cc(O)c(O)cc3[C@@H](c3cc(OC)c(OC)c(OC)c3)[C@H]3C(=O)OC[C@@H]32)cc1
Outgoing: 100

###

Parameter: ID50. Scope: all listed entries.
Biological target: DNA topoisomerase II (Homo sapiens) (UniProt P11388+Q02880)
Assay: Inhibition of human DNA Topoisomerase II
Type: protein assay
Report only the number, with the unit µM understood.

Below, 7 molecules whose answers are already recorded.
smilesNotation	measure	reportedValue
COc1cc([C@@H]2c3cc(O)c(O)cc3[C@@H](Nc3ccc(F)cc3)[C@H]3COC(=O)[C@H]23)cc(OC)c1OC	ID50	50
COc1cc([C@@H]2c3cc(O)c(O)cc3[C@@H](Nc3cccc(O)c3)[C@H]3COC(=O)[C@H]23)cc(OC)c1OC	ID50	50
COc1cc2c(cc1OC)[C@@H](Nc1ccc(F)cc1)[C@H]1COC(=O)[C@@H]1[C@@H]2c1cc(OC)c(O)c(OC)c1	ID50	50
COc1cc([C@@H]2c3cc(O)c(O)cc3[C@@H](Nc3cccc(O)c3)[C@H]3COC(=O)[C@H]23)cc(OC)c1O	ID50	20
COc1cc([C@@H]2c3cc(O)c(O)cc3[C@@H](Nc3ccccc3)[C@H]3COC(=O)[C@H]23)cc(OC)c1O	ID50	25
COc1cc([C@@H]2c3cc(O)c(O)cc3[C@@H](Nc3ccccc3)[C@H]3COC(=O)[C@H]23)cc(OC)c1OC	ID50	50
COc1cc2c(cc1OC)[C@@H](Nc1ccc([N+](=O)[O-])cc1)[C@H]1COC(=O)[C@@H]1[C@@H]2c1cc(OC)c(O)c(OC)c1	ID50	100

Then there is this molecule:
Incoming: For DNA topoisomerase II (Homo sapiens) (UniProt P11388+Q02880), provide ID50 of CCOC(=O)c1ccc(N[C@@H]2c3cc(OC)c(OC)cc3[C@@H](c3cc(OC)c(O)c(OC)c3)[C@H]3C(=O)OC[C@@H]32)cc1 please.
Outgoing: 100
